# Test system: HCC1599
# assay.details: normalised viability (% of control), CellTiter-Blue; higher = more viable cells (about 100 = DMSO control)
# conditions: 10 nM; incubation time: 72 h
quantity.kind: normalised viability (%)
All answers are understood in %, so give the number only.

CCN(CCCOc1ccc2c(Nc3cc(CC(=O)Nc4cccc(F)c4)[nH]n3)ncnc2c1)CCOP(=O)(O)O	101
NC(=O)Nc1cc(-c2cccc(F)c2)sc1C(=O)N[C@H]1CCCNC1	101
COc1cc2nccc(Oc3ccc(NC(=O)C4(C(=O)Nc5ccc(F)cc5)CC4)cc3)c2cc1OC [Cabozantinib]	82.3

### Prompt Lab request: please report normalised viability under test system HCC1599 for CO[C@H]1/C=C\C=C(/C)C(=O)NC2=CC(=O)C(NCCN(C)C)=C(C[C@@H](C)C[C@H](OC)[C@H](O)[C@@H](C)/C=C(\C)[C@@H]1OC(N)=O)C2=O
### Response 77

====

# Tested on: BT-474
# assay.details: normalised viability (% of control), CellTiter-Blue; higher = more viable cells (about 100 = DMSO control)
# conditions: 10000 nM; incubation time: 72 h
quantity.kind: normalised viability (%)
Provide the reading as a plain figure in %.

Example results:
Oc1nc(-c2ccc(C(F)(F)F)cc2)nc2c1CSCC2 [XAV-939]	103
COc1cc([C@@H]2c3cc4c(cc3[C@@H](O[C@@H]3O[C@@H]5CO[C@@H](C)O[C@H]5[C@H](O)[C@H]3O)[C@H]3COC(=O)[C@H]23)OCO4)cc(OC)c1O [Etoposide]	87.3
NCC(=O)CCC(=O)O [Aminolevulinic acid]	131
CN(N=O)C(=O)N[C@@H](C=O)[C@@H](O)[C@H](O)[C@H](O)CO [Streptozocin]	135
Cn1c(CCCC(=O)O)nc2cc(N(CCCl)CCCl)ccc21 [Bendamustine]	105

Next, consider the following compound.
### Prompt Write down the reported normalised viability of CNCc1ccc(-c2[nH]c3cc(F)cc4c3c2CCNC4=O)cc1 [Rucaparib] , test system: BT-474.
### Response 102

====

# Test system: SK-BR-3
# assay.details: normalised response (% of control), CellTiter-Glo; higher = more viable cells (100 = DMSO, 0 = benzethonium chloride kill control)
# conditions: incubation time: 72 h
quantity.kind: normalised response

CS(=O)(=O)c1ccc(C2=C(c3ccccc3)C(=O)OC2)cc1 [Rofecoxib] (1000 nM)	116%

### Prompt Value lookup for normalised response; key = COc1cc2nccc(Oc3ccc(NC(=O)C4(C(=O)Nc5ccc(F)cc5)CC4)cc3)c2cc1OC [Cabozantinib] (100 nM)
### Response 104%

### Prompt Next compound up: COc1cc([C@@H]2c3cc4c(cc3[C@@H](O[C@@H]3O[C@@H]5CO[C@@H](C)O[C@H]5[C@H](O)[C@H]3O)[C@H]3COC(=O)[C@H]23)OCO4)cc(OC)c1O [Etoposide] (1 nM)
### Response 109%

### Prompt COc1cc([C@@H]2c3cc4c(cc3[C@@H](O[C@@H]3O[C@@H]5CO[C@@H](C)O[C@H]5[C@H](O)[C@H]3O)[C@H]3COC(=O)[C@H]23)OCO4)cc(OC)c1O [Etoposide] (1000 nM) , same question.
### Response 67.7%

### Prompt Could you do the same for Cc1ccc(C(=O)N(CCCN)[C@@H](c2oc3cc(Cl)ccc3c(=O)c2Cc2ccccc2)C(C)C)cc1 (0.01 nM) , please?
### Response 93.1%

### Prompt Try the compound CCCCCCCCCCCCCCCCCCOP(=O)([O-])OC1CC[N+](C)(C)CC1 [Perifosine] (250 nM)
### Response 97.7%

### Prompt Do the same for C[C@]12CC[C@@H]3c4ccc(O)cc4C[C@@H](CCCCCCCCC[S+]([O-])CCCC(F)(F)C(F)(F)F)[C@H]3[C@@H]1CC[C@@H]2O (stereo not given in full) [Fulvestrant] (0.1 nM) please
### Response 108%

### Prompt Queued: CC(=O)Nc1ccc(C(=O)Nc2ccccc2N)cc1 [Tacedinaline] (100 nM)
### Response 95.4%

### Prompt Cool, now Cn1c(Nc2ccc(C(F)(F)F)cc2)nc2cc(Oc3ccnc(-c4ncc(C(F)(F)F)[nH]4)c3)ccc21 [RAF265] (100 nM)
### Response 92%

### Prompt And the next one, NC(=O)Nc1cc(-c2cccc(F)c2)sc1C(=O)N[C@H]1CCCNC1 [AZD7762] (1 nM) ?
### Response 105%

### Prompt And what about the compound CC(=O)Nc1ccc(C(=O)Nc2ccccc2N)cc1 [Tacedinaline] (0.1 nM) ?
### Response 105%

### Prompt Do the same for CC(=O)Nc1ccc(C(=O)Nc2ccccc2N)cc1 [Tacedinaline] (1 nM) please
### Response 97.1%

====

# Tested on: MDA-MB-436
# assay.details: normalised response (% of control), CellTiter-Glo; higher = more viable cells (100 = DMSO, 0 = benzethonium chloride kill control)
# conditions: incubation time: 72 h
quantity.kind: normalised response (%)
// return numeric value only (unit: %, not printed)

Completed entries (count: 3):
CS(=O)(=O)c1ccc(C2=C(c3ccccc3)C(=O)OC2)cc1 [Rofecoxib] (10 nM)	102
Cc1ccc(C(=O)N(CCCN)[C@@H](c2oc3cc(Cl)ccc3c(=O)c2Cc2ccccc2)C(C)C)cc1 (0.1 nM)	106
NC(=O)Nc1cc(-c2cccc(F)c2)sc1C(=O)N[C@H]1CCCNC1 [AZD7762] (100 nM)	92.4

### Prompt What does the data say about its normalised response? Entry: C[C@]12CC[C@@H]3c4ccc(O)cc4C[C@@H](CCCCCCCCC[S+]([O-])CCCC(F)(F)C(F)(F)F)[C@H]3[C@@H]1CC[C@@H]2O (stereo partly drawn) [Fulvestrant] (1 nM)
### Response 105

### Prompt # repeat for N[C@@H](CSC(c1ccccc1)(c1ccccc1)c1ccccc1)C(=O)O [S-trityl-L-cysteine] (4 nM)
### Response 85.6

### Prompt What would you report for N#CCNC(=O)c1ccc(-c2ccnc(Nc3ccc(N4CCOCC4)cc3)n2)cc1 [Momelotinib] (10 nM) ?
### Response 101

### Prompt Then this compound: CN(N=O)C(=O)N[C@@H](C=O)[C@@H](O)[C@H](O)[C@H](O)CO [Streptozocin] (10 nM)
### Response 98.1

### Prompt Same read-out for Oc1nc(-c2ccc(C(F)(F)F)cc2)nc2c1CSCC2 [XAV-939] (1 nM) ?
### Response 107

====

# Test system: MCF-10A
# assay.details: drug sensitivity score (DSS), CellTox Green (DSS (AUC-based score)); higher = stronger drug effect (viability inhibition or cytotoxicity); extreme values may be limits of the assay
# conditions: incubation time: 72 h
quantity.kind: drug sensitivity score
Enter the number alone.

Cc1ccc(-n2nc(C(C)(C)C)cc2NC(=O)Nc2ccc(OCCN3CCOCC3)c3ccccc23)cc1 [Doramapimod]	0

### Prompt Would you kindly share the measured drug sensitivity score for COc1cc2nccc(Oc3ccc(NC(=O)C4(C(=O)Nc5ccc(F)cc5)CC4)cc3)c2cc1OC [Cabozantinib] ?
### Response 0

### Prompt Next up: Clc1ccc(Nc2nnc(Cc3ccncc3)c3ccccc23)cc1 [Vatalanib]
### Response 2.74

====

# Test system: MDA-MB-453
# assay.details: normalised viability (% of control), CellTiter-Blue; higher = more viable cells (100 = DMSO, 0 = benzethonium chloride kill control)
# conditions: incubation time: 72 h
Items are presented alongside their recorded normalised viability.
Return type: number; implicit unit %.

Check out these entries, answers already filled in.
C#Cc1cccc(Nc2ncnc3cc(OCCOC)c(OCCOC)cc23)c1 [Erlotinib] (1 nM)	99.8
Oc1nc(-c2ccc(C(F)(F)F)cc2)nc2c1CSCC2 [XAV-939] (1 nM)	106

### Prompt Need normalised viability of O=C1CCC(N2C(=O)c3ccccc3C2=O)C(=O)N1 (stereo unspecified) [Thalidomide] (1 nM) , thanks.
### Response 108

### Prompt Same question, CCC1(c2ccc(N)cc2)CCC(=O)NC1=O (stereo unspecified) [Aminoglutethimide] (1 nM) this time
### Response 89.7

### Prompt Quick one: NCC(=O)CCC(=O)O [Aminolevulinic acid] (1 nM)
### Response 98.8

### Prompt Also COc1cc([C@@H]2c3cc4c(cc3[C@@H](O[C@@H]3O[C@@H]5CO[C@@H](C)O[C@H]5[C@H](O)[C@H]3O)[C@H]3COC(=O)[C@H]23)OCO4)cc(OC)c1O [Etoposide] (1 nM) , if possible.
### Response 103

====

# Test system: CAL-51
# assay.details: normalised viability (% of control), CellTiter-Blue; higher = more viable cells (about 100 = DMSO control)
# conditions: 30 nM; incubation time: 72 h
quantity.kind: normalised viability (%)
Your answer is read as %, so omit the unit and give the number.

Record excerpt, results attached:
CN[C@@H]1C[C@H]2O[C@@](C)([C@@H]1OC)n1c3ccccc3c3c4c(c5c6ccccc6n2c5c31)C(=O)N[C@H]4O	87.2
C=C(c1ccc(C(=O)O)cc1)c1cc2c(cc1C)C(C)(C)CCC2(C)C	88.7
COc1cc([C@@H]2c3cc4c(cc3[C@@H](O[C@@H]3O[C@@H]5CO[C@@H](C)O[C@H]5[C@H](O)[C@H]3O)[C@H]3COC(=O)[C@H]23)OCO4)cc(OC)c1O [Etoposide]	85.8

### Prompt Please look up its normalised viability: Clc1ccc(Nc2nnc(Cc3ccncc3)c3ccccc23)cc1
### Response 98.7

### Prompt Follow-up entry: CCC1=C[C@@H]2CN(C1)Cc1c([nH]c3ccccc13)[C@@](C(=O)OC)(c1cc3c(cc1OC)N(C)[C@H]1[C@@](O)(C(=O)OC)[C@H](OC(C)=O)[C@]4(CC)C=CCN5CC[C@]31[C@@H]54)C2
### Response 91.7

### Prompt Next: O=P1(NCCCl)OCCCN1CCCl (configuration not stated) [Ifosfamide]
### Response 110

### Prompt # iterate: N.N.[Cl][Pt][Cl] [Cisplatin]
### Response 97.9
